- experimental-protocol: Inhibition of Escherichia coli DNA gyrase assessed as inhibition of DNA supercoiling activity using relaxed pBR322 as substrate incubated for 30 mins in presence of ATP by ethidium bromide staining based agarose gel electrophoresis
value-type: IC50 (µM)
Enter your answer as a number in µM; do not include the unit.

• Cc1cc(O)c2c(c1)C(=O)C=CC2=O = 30

Which value of IC50 has been reported for `Cc1cc(O)c2c(c1)C(=O)C(c1c(C)cc3c(c1O)C(=O)C=CC3=O)=CC2=O` in the records?
4

---

- experimental-protocol: Cytotoxicity against mouse RAW264.7 cells assessed as inhibition of cell viability at 100 uM measured after 72 hrs by MTT assay relative to control
- Format: toxicity
- stated-conditions: read-out: INH
Lab note: compare cytotoxicity at 72 h, 100 µM with 20%, writing condition met if less and condition not met if equal or more.

Check out these entries, answers already filled in.
- O=C1C(=O)N(CCN2CCN(NCc3ccccc3C(F)(F)F)CC2)c2ccc(F)cc21: condition not met
- O=C1C(=O)N(CCN2CCN(NCc3ccccc3F)CC2)c2ccccc21: condition met
- O=C1C(=O)N(CCN2CCN(NCc3ccccc3)CC2)c2ccc(F)cc21: condition not met
- COc1ccccc1CNN1CCN(CCN2C(=O)C(=O)c3ccccc32)CC1: condition not met
- O=C1C(=O)N(CCN2CCN(NCc3ccccc3OCc3ccccc3)CC2)c2ccc(Cl)cc21: condition not met
- O=C1C(=O)N(CCN2CCN(NCc3ccccc3OCc3ccccc3)CC2)c2ccccc21: condition met
- O=C1C(=O)N(CCN2CCN(NCc3ccccc3)CC2)c2ccccc21: condition met
- O=C1C(=O)N(CCN2CCN(NCc3ccc(Cl)cc3Cl)CC2)c2ccccc21: condition met
- O=C1C(=O)N(CCN2CCN(NCc3ccccc3C(F)(F)F)CC2)c2ccc(Cl)cc21: condition met

Switching to the query record.
Problem: For the compound `COc1ccc2c(c1)C(=O)C(=O)N2CCN1CCN(NCc2cccc(Cl)c2Cl)CC1` , is cytotoxicity at 72 h, 100 µM under 20%?
condition not met
